- tgt: T1, Human GAL3 protein (TrueBinding, QCB200349 / QCB200352; R&D Systems, 8259-GA) (human, UniProt P17931 2-250)
- T1 construct: also called human galectin-3
- experiment_description: blocking ELISA (GAL3 coated; antibody + biotinylated ITGaV); also: test concentration or dose not given here
Exercise: for every item that follows, state its recorded percent blockade of GAL3-ITGaV interaction.

Summary for this binder, F847C.10B9 (antibody, V domains shown, also called 847.10B9) VH: QIQLVQSGPEVKKPGETVKISCKASGYIFTNYGMNWVKQAPGKGLKWMGWINTYTGEPTYTDDFKGRFAFSLETSASTAYLQINNLKNEDTATYFCAKFGNYVGAMDYWGQGTSVTVSS VL: DIRMTQSPSSLSASLGDTITITCHASQNINVWLSWYQQKPGNIPKLLIYKASNLHTGVPSRFSGSGSGTGFTLTISSLQPEDIATYYCQQGQSYPYTFGGGTKLELK : percent blockade of GAL3-ITGaV interaction is > 90%

Summary for this binder, 12G5.D7 (antibody, V domains shown) VH: QVQLKQSGAELVRPGASVKLSCKASGYTFTDYYINWVKQRPGQGLEWIARIYPGTGNTDYNEKFKGRATLTAEKSSSTAYMQLSSLTSEDSAVYFCARFAYYYGSGGYFDYWGHGTTLTVSS VL: DILMTQSPSSMSVSLGDTVSITCHASQGINSNMGWLQQKPGKSFKGLIYHATNLEDGVPSRFSGSGSGADYSLTISSLESEDFADYYCVQYAQFPPTFGSGTKLEIK : percent blockade of GAL3-ITGaV interaction is < 30%

Summary for this binder, F847.14H4 (847.14H4) (antibody, V domains shown, anti-Gal3 antibody) VH: QIQLVQSGPELTKPGETVKISCKASGYTFTDYGMNWVRQAPGETLKWMGWINTYTGEPTYADDFKGRFAFSLESSASTAYLQINNLKNEDVATYFCARYPMDYWGQGTSVTVSS VL: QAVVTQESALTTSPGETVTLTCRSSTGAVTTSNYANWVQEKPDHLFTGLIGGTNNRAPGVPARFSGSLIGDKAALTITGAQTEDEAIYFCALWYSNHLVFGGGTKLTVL : percent blockade of GAL3-ITGaV interaction is < 30%

Summary for this binder, 20D11.2C6 (antibody, V domains shown) VH: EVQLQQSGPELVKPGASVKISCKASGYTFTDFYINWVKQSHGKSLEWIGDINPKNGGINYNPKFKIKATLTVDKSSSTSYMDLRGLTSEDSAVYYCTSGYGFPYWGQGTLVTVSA VL: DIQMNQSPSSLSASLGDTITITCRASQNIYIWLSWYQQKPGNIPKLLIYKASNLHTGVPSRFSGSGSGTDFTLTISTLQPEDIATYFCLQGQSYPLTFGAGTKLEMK : percent blockade of GAL3-ITGaV interaction is > 90%

Summary for this binder, F846C.1B2 (antibody, V domains shown, also called 846.1B2) VH: QIQLVQSGPELKKPGETVKISCKASGYTFTNYGMNWVKQAPGKGLKWMGWINTYTGEPSYADDFKGRFAFSLETSASTAYLQINNLKNEDMATYFCARWGGYAGDYYAMDFWGQGTSVTVSS VL: NIWLTQSPSSLAVSAGEMVTMTCKSSQSVLYSSNQKNYLAWYQQKPGQSPKLLIYWASTRESGVPDRFTGSGSGTDFSLTISSVQAEDLAVYYCHQYLSSLTFGAGTKLELK : percent blockade of GAL3-ITGaV interaction is > 90%

Summary for this binder, F847C.12F12 (antibody, V domains shown, anti-Gal3 antibody; also called 847.12F12; 84712F12) VH: QIQLVQSGPELKKPGETVKISCKASGYTFTNYGMNWVKQAPGKGLKWMGWINTYTGEPTYVDDFKGRFAFSLETSASTAYLRINNLKNEDTATYFCAKFGNYVGAMDYWGQGTSVTVSS VL: DIQVIQSPSSLSASLGDTITITCHASQNINVWLSWYQQKPGNIPKLLIYKASNLHTGVPSRFSGSGSGTGFTLTISSLQPEDIATYYCQQGQSYPYTFGGGTKLELK : percent blockade of GAL3-ITGaV interaction is > 90%
